// values below are reported GI50
- Test system: IGROV-1
- Protocol Notes: NCI tumour cell line growth inhibition, 48 h
The source made the active and inactive calls. Rule as the data show it: active = GI50 up to about 1.1 µM and inactive = higher.

Here's what some known entries look like.
>  <Compound>
CC(=O)N(CCCCNC(=O)C(F)(F)F)CCCNC(=O)C(F)(F)F

>  <GI50>
> 100 µM (inactive)

$$$$
>  <Compound>
O=C1OC(C2Cc3cc4c(cc3C2=O)CCC4)c2ccccc21 (stereo not given)

>  <GI50>
45.5 µM (inactive)

$$$$
>  <Compound>
COc1cc(OC)c(C2CC=Cc3c(OC)cc(OC)c(OC)c32)cc1OC (stereo not given)

>  <GI50>
> 100 µM (inactive)

$$$$
>  <Compound>
C=CCC1(CC)C(=O)NC(=O)NC1=O

>  <GI50>
> 100 µM (inactive)

$$$$

Now for a further compound.
# input Can you look up the measured GI50 of C1=N\CCN2CCN(CC/N=C\c3ccc(cc3)OCc3cccc(n3)COc3ccc/1cc3)CC2 for me?
# output > 50 µM (inactive)
